Reference source: PubChem BioAssay (NCI)

- System: NCI-H322M lung
- Test summary: NCI-60 one-dose screen, 48 h
- Particulars: 10 µM unless noted
Compounds without any hit were thinned out: in the full panel of roughly 83,000, 20% have a hit. Activity calls are given as the source filed them. Rule for the calls: active = growth percent below 10; inactive = the rest.
Entry note: the call must match one of active, inactive

Some solved entries appear below for comparison.
COc1ccc(-c2cc(-c3cc(OC)ccc3OC)[nH]c(=O)c2C#N)cc1; inactive
CCCCCCCSc1ccc(C(=O)O)cc1; inactive
CN(C)c1ccc(/C=C2\C=C(c3ccccc3)N(CCc3ccccc3)C2=O)cc1; inactive
COc1ccc(-c2nc3ccccn3c2/C=C/C(=O)c2cc(OC)c(OC)c(OC)c2)cc1; inactive

Q: Hi team, can someone confirm the assay call for `Oc1[nH]c2ccccc2c1/C=c1/cc2c(c(-c3ccc(F)cc3)n1)=Nc1ccccc1-2` ?
Result: inactive

Q: Hi team, can someone confirm the assay call for O=C(O)CC1Sc2ccccc2NC1=O (centres undefined) ?
Result: inactive

Q: Hi team, can someone confirm the assay call for `CCOC(=O)c1ccc(NC(=O)CCCN(CC)CC)cc1` ?
Result: inactive

Q: Hi team, can someone confirm the assay call for COC1(CC[C@@H](C)COC2OC(CO)C(O)C(O)C2O)O[C@H]2C[C@H]3[C@@H]4CC=C5C[C@@H](OC6OC(CO)C(OC7OC(C)C(O)C(O)C7O)C(O)C6OC6OC(C)C(O)C(O)C6O)CC[C@]5(C)[C@H]4CC[C@]3(C)[C@H]2[C@@H]1C (some centres undefined) ?
Result: active

Q: Hi team, can someone confirm the assay call for `COc1cc(NC(=O)c2cccc(-c3cc(=O)c4c(OC)c(OC)c(OC)cc4o3)c2)cc(OC)c1OC` ?
Result: inactive

Q: Hi team, can someone confirm the assay call for `COc1ccc(O)c(-c2cc(-c3ccccc3)c(C#N)c(=O)[nH]2)c1` ?
Result: inactive

Q: Hi team, can someone confirm the assay call for `Oc1ccccc1-c1nc2ccccn2c1NCCN1CCOCC1` ?
Result: inactive

Q: Hi team, can someone confirm the assay call for `C[C@@H]1C(=O)N(C[C@H](Cc2ccccc2)NC(=O)OCc2ccccc2)[C@]1(Cc1ccccc1)C(=O)OC(C)(C)C` ?
Result: inactive

Q: Hi team, can someone confirm the assay call for `CCCCCCCCCCCCCCCCCC1=NCCN1C(=O)OCCO` ?
Result: inactive

Q: Hi team, can someone confirm the assay call for `COc1ccc(/C=C(\C#N)n2nnc3cc(F)c(F)cc32)c(OC)c1OC` ?
Result: inactive

Q: Hi team, can someone confirm the assay call for `Cc1cc(N(CCCNc2ccnc3cc(Cl)ccc23)Cc2ccccn2)nc(N2CCOCC2)n1` ?
Result: inactive

Q: Hi team, can someone confirm the assay call for C=CCN1C(=O)[C@]2(SC1=S)[C@H](c1cccc(Cl)c1)CN(C)[C@]21C(=O)NC2C=CC(Cl)=C[C@H]21 (some centres undefined) ?
Result: inactive

Q: Hi team, can someone confirm the assay call for `O=C1Nc2ccc(Cl)cc2/C1=N/N=C/c1c[nH]c2ccccc12` ?
Result: inactive

Q: Hi team, can someone confirm the assay call for `O=C(Nc1cccc2[nH]c(C(F)(F)F)nc12)c1cc(Cl)ccc1Cl` ?
Result: inactive

Q: Hi team, can someone confirm the assay call for `CCN(CC)CCNc1ccc(C)c2sc3cc(C)ccc3c(=O)c12` ?
Result: inactive

---

Below, each entry is listed with its recorded growth.
- Test system: SK-MEL-28 melanoma
- Test summary: NCI-60 one-dose screen, 48 h (100 = growth as untreated, 0 = no growth, -100 = all killed)
- Particulars: 10 µM unless noted
This is part of a sample that, as a whole, favours compounds with a hit. Of some 83,000 tested, about 20% had one in any assay.
Entry rule: numbers only, all in %.

Example entries and their recorded answers appear below.
COc1ccc(-c2cc(-c3ccc(Nc4nc(Nc5ccccc5)nc(Nc5ccc(Cl)cc5)n4)cc3)nc(N)c2C#N)cc1; -72.9
CCc1nc2ccccc2[nH]1; 105

Q: Query: growth; subject: `C=C1C(=O)O[C@H]2[C@H]1CC/C(Cn1cc(CNCCc3c[nH]c4ccc(Cl)cc34)nn1)=C\CC[C@@]1(C)O[C@@H]21`
Result: 81.5

Q: Query: growth; subject: CN1C[C@@H](c2ccc(Cl)cc2)[C@]2(NC(=S)N(c3ccc(F)c(Cl)c3)C2=O)[C@@]12C(=O)NC1C=CC(Cl)=C[C@H]12 (some centres undefined)
Result: 72.6
